Just for reference, patent US11116760B2 is where these values come from.

Listed below: EC50 values for each entry.
measured.on: α4β7 integrin (Homo sapiens (Human), UniProt P13612+P26010)
Sequence (P13612 34-1032): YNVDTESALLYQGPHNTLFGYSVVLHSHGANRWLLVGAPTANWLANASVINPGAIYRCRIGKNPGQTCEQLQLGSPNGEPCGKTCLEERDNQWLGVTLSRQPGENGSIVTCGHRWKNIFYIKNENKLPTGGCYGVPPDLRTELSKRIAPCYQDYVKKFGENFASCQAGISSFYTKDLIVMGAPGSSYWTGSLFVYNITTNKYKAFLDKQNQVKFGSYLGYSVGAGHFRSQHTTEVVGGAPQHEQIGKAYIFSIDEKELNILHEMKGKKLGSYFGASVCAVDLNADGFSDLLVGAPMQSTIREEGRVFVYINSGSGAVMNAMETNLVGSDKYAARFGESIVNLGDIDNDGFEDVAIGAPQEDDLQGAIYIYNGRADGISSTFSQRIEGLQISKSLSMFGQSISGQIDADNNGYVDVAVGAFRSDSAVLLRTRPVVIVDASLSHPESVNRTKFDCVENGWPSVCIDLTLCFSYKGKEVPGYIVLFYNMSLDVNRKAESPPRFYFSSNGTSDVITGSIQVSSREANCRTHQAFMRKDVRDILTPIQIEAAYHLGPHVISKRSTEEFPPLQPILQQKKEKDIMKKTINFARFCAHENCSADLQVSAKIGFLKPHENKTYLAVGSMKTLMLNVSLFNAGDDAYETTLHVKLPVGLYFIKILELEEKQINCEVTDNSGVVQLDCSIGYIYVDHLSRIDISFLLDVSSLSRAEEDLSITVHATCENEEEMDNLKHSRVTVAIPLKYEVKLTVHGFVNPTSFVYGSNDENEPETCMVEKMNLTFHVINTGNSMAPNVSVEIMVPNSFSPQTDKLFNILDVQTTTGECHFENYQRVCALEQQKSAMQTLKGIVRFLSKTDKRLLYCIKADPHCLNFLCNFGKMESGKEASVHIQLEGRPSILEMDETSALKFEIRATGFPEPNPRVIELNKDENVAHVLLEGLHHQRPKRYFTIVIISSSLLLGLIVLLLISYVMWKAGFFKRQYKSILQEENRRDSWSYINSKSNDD
Sequence (P26010 20-798): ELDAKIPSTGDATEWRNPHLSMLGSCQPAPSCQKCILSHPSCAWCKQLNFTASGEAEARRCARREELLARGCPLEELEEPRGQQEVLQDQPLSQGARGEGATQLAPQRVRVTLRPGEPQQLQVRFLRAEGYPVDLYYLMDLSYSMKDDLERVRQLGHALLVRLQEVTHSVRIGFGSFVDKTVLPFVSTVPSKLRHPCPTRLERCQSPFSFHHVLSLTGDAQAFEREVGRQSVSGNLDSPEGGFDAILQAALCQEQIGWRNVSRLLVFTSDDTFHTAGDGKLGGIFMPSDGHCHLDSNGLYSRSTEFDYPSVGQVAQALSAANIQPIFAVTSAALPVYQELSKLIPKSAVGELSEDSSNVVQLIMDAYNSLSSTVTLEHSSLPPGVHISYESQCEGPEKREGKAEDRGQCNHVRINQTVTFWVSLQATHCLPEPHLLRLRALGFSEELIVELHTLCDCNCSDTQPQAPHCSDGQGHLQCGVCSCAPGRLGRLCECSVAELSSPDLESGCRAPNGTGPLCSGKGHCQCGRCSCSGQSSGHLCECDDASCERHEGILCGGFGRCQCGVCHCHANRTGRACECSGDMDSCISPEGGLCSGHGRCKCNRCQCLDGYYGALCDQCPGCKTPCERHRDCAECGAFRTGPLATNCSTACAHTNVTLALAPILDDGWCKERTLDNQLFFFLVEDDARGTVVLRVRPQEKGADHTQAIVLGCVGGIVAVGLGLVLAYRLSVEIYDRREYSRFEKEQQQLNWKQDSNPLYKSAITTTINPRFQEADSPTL
test.summary: α4β7 Integrin Cell Capture Assay
Type: cell-based
test.parameters: RPMI8866 cells captured on MadCAM-1 extracellular domain-coated plate
Output spec: scalar in nM, unitless text.

Example entries and their recorded answers appear below.
- structure.string: "Cc1cc(C(F)(F)F)c(-c2ccc(C[C@H](NC(=O)c3c(F)cc(N4CCc5ccccc5[C@@H]4C(F)(F)F)cc3F)C(=O)O)c3cccnc23)c(=O)n1C"
  quantity.name: "EC50"
  recorded.number: 0.331
- structure.string: "Cc1cc(N2CCOC[C@@H]2C(F)(F)F)cc(F)c1C(=O)N[C@@H](Cc1ccc(-c2cc(C)c(C)n(C)c2=O)c2ncccc12)C(=O)O"
  quantity.name: "EC50"
  recorded.number: 0.211
- structure.string: "Cc1cc(N2CCOC[C@@H]2C(F)(F)F)cc(F)c1C(=O)N[C@@H](Cc1cc(F)c(-n2c(=O)c3ccncc3n(C)c2=O)c2ncccc12)C(=O)O"
  quantity.name: "EC50"
  recorded.number: 0.076
- structure.string: "Cc1cc(N2CCOC[C@@H]2C(F)(F)F)cc(F)c1C(=O)N[C@@H](Cc1cc(F)c(-c2cc3cnccc3n(C)c2=O)c2ncccc12)C(=O)O"
  quantity.name: "EC50"
  recorded.number: 0.13
- structure.string: "Cc1cc(N2CCOC[C@@H]2C(F)(F)F)cc(F)c1C(=O)N[C@@H](Cc1ccc(-n2c(=O)c3cc(F)c(-n4ccnc4)cc3n(C)c2=O)c2ncccc12)C(=O)O"
  quantity.name: "EC50"
  recorded.number: 0.104

In plain terms, Cc1cc(N2CCOC[C@@H]2C(F)(F)F)cc(F)c1C(=O)N[C@@H](Cc1ccc(-n2c(=O)c3ccncc3n(C)c2=O)c2ncc(F)cc12)C(=O)O has a documented EC50 of 0.096

The compound listed as Cc1cc(N2CCOC[C@@H]2C(F)(F)F)cc(F)c1C(=O)N[C@@H](Cc1ccc(-c2cc(N(C)C)c(C)n(C)c2=O)c2ncccc12)C(=O)O shows EC50 equal to 1.02

Sure, the documented EC50 for Cc1cc(N2CCOC[C@@H]2C(F)(F)F)cc(F)c1C(=O)N[C@@H](Cc1ccc(-n2c(=O)c3cccnc3n(C)c2=O)c2ncccc12)C(=O)O is 0.11

GET /value?item= CC[C@@H](Nc1cc(F)c(C(=O)N[C@@H](Cc2ccc(-c3c(C(F)(F)F)n(C)cc(C)c3=O)c3ncccc23)C(=O)O)c(F)c1)C(F)(F)F &field=EC50 returns 1.19

The reported EC50 of the compound Cc1cc(C(F)(F)F)c(-c2ccc(C[C@H](NC(=O)c3c(F)cc(N4CCOC[C@@H]4C(F)(F)F)cc3C3CC3)C(=O)O)c3cccnc23)c(=O)n1C was 0.205

# EC50 (compound: Cc1cc(N2CCOC[C@@H]2C(F)(F)F)cc(F)c1C(=O)N[C@@H](Cc1ccc(-c2nc(C)c(C)n(C)c2=O)c2ncc(F)cc12)C(=O)O ) is 0.232

* * *

measured.on: α4β7 integrin (Homo sapiens (Human), UniProt P13612+P26010)
test.summary: α4β7 Integrin Cell Capture Assay
Type: cell-based
test.parameters: Table 1; capture of α4β7 expressing RPM18866 cells on MadCAM-1 extracellular domain-coated plate
Form field: EC50 (one value per entry).

Recorded EC50, per entry:
- structure.string: "N#Cc1ccc(-c2ccc(C[C@H](NC(=O)c3c(F)cc(N4CCS(=O)(=O)CC4)cc3F)C(=O)O)c3cccnc23)c(Cl)c1"
  EC50: "18.1 nM"
- structure.string: "Cn1c(=O)c(-c2ccc(C[C@H](NC(=O)c3c(F)cc(N4CCOC[C@@H]4C(F)(F)F)cc3F)C(=O)O)c3cccnc23)cc2ccccc21"
  EC50: "0.5 nM"
- structure.string: "CC[C@@H](Nc1cc(F)c(C(=O)N[C@@H](Cc2ccc(-c3c(C(F)(F)F)cc(C)n(C)c3=O)c3ncccc23)C(=O)O)cc1C)C(F)(F)F"
  EC50: "3.1 nM"
- structure.string: "COc1cc2ccccc2cc1-c1ccc(C[C@H](NC(=O)c2c(F)cccc2F)C(=O)O)c2cccnc12"
  EC50: "25.1 nM"
- structure.string: "N#Cc1ccc(-c2c(F)cc(C[C@H](NC(=O)c3c(F)cccc3F)C(=O)O)c3cccnc23)c(Cl)c1"
  EC50: "39.5 nM"

So, COc1ccc(C(F)(F)F)c(-c2ccc(C[C@H](NC(=O)c3c(Cl)cccc3Cl)C(=O)O)c3cccnc23)n1 ? Its EC50 was 28.9 nM
